Experiment: Sodium perborate stabilization in wash liquors (bleaching of grape juice stained swatches)
Settings: 5.2×10^-5 mol/l stabilizer; sodium perborate-monohydrate 0.8 g/l; 50° C., 15 minutes; pH 10.3; Fe^III, Cu^II, Mn^II
Method: The efficiency of the bleaching action of a laundry detergent containing the stabilizers of the invention was measured by washing white poly-cotton fabric swatches previously stained with grape juice. The test was carried out using the following detergent formulation: […] Sodium Dodecyl Benzene Sulfonate […] The efficiency of the bleaching action was determined by measuring the brightness (ΔE) of the swatches and the percentage of soil removed from the swatches. […]
ΔE (brightness of the swatches) values by entry
Could you keep your reply to the number by itself?

O=C(O)CSC(CC(=O)O)C(=O)O (stereo not drawn) = 102.3

What value of measured ΔE (brightness of the swatches) is listed for "O=C(O)CCN(CC(=O)O)CC(=O)O" ?
98.0

Repeat with O=C(O)CC(C(=O)O)N(CC(=O)O)CC(=O)O (stereo not drawn)
93.9

Ok, now O=C(O)CN(CCN(CC(=O)O)CC(=O)O)CC(=O)O [EDTA, Ethylenediaminetetraacetic acid, reference compound]
86.2

Same question for O=C(O)CC(NC(CC(=O)O)C(=O)O)C(=O)O (stereo not drawn) please.
92.7

And then O=C(O)CNC(CC(=O)O)C(=O)O (stereo not drawn) , what is it?
87.6
